B1: CPEB3 Ribozyme (parent)
chain: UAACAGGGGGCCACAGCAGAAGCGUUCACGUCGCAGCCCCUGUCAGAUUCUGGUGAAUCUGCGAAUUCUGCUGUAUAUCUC

- Variants of: B1
- protocol-details: self-cleavage, relative activity (ratio to wild type); higher = more cleavage; in vitro, sequencing
endpoint-name: self-cleavage

[[record]]
mutation_id = "G24C U48C"
assay_value = 0.22

[[record]]
mutation_id = "A13G G24A"
assay_value = 0.27

[[record]]
mutation_id = "A56U C81A"
assay_value = 1.2

[[record]]
mutation_id = "A56G A75U"
assay_value = 0.95

[[record]]
mutation_id = "U66C U78A"
assay_value = 0.43

[[record]]
mutation_id = "C12U U67G"
assay_value = 0.95

[[record]]
mutation_id = "U72G A77U"
assay_value = 0.71

[[record]]
mutation_id = "U25C A35G"
assay_value = 0.31

[[record]]
mutation_id = "C14G U54C"
assay_value = 1.03

[[record]]
mutation_id = "A45U U76A"
assay_value = 0.52

[[record]]
mutation_id = "A15G C39A"
assay_value = 0.32

[[record]]
mutation_id = "U1C G52A"
assay_value = 1

[[record]]
mutation_id = "U60A A64C"
assay_value = 0.13

[[record]]
mutation_id = "U43C A77U"
assay_value = 0.78

[[record]]
mutation_id = "A28G U66A"
assay_value = 0.31

[[record]]
mutation_id = "A13U G52C"
assay_value = 1.24

[[record]]
mutation_id = "C40A U69G"
assay_value = 0.11

[[record]]
mutation_id = "A64G C81G"
assay_value = 1.03

[[record]]
mutation_id = "A13G C23U"
assay_value = 0.36

[[record]]
mutation_id = "G6U A20U"
assay_value = 0.34

[[record]]
mutation_id = "C27U U78C"
assay_value = 0.44

[[record]]
mutation_id = "C12A G24U"
assay_value = 0.33

[[record]]
mutation_id = "A5G G19U"
assay_value = 0.45

[[record]]
mutation_id = "C40A U80C"
assay_value = 0.24

[[record]]
mutation_id = "G36C A65G"
assay_value = 0.13

[[record]]
mutation_id = "U43A G52C"
assay_value = 1.19

[[record]]
mutation_id = "G53C U76A"
assay_value = 1.22

[[record]]
mutation_id = "A3G C32G"
assay_value = 0.17

[[record]]
mutation_id = "C39A C71U"
assay_value = 0.11

[[record]]
mutation_id = "A15C U78C"
assay_value = 0.87

[[record]]
mutation_id = "U31C C34A"
assay_value = 0.15

[[record]]
mutation_id = "A35C A47G"
assay_value = 0.81

[[record]]
mutation_id = "G8U G46U"
assay_value = 0.19

[[record]]
mutation_id = "A45C U48C"
assay_value = 0.4

[[record]]
mutation_id = "C14U U41A"
assay_value = 0.24

[[record]]
mutation_id = "A21U C50A"
assay_value = 0.18

[[record]]
mutation_id = "C12A G19A"
assay_value = 0.43

[[record]]
mutation_id = "G7A U25A"
assay_value = 0.15

[[record]]
mutation_id = "C23U U76C"
assay_value = 0.4

[[record]]
mutation_id = "A57U"
assay_value = 0.8

[[record]]
mutation_id = "G52U C68U"
assay_value = 1.19

[[record]]
mutation_id = "A35U C81G"
assay_value = 0.39

[[record]]
mutation_id = "C27G U49A"
assay_value = 0.28

[[record]]
mutation_id = "C39U A56U"
assay_value = 0.32

[[record]]
mutation_id = "A47C A75U"
assay_value = 0.3

[[record]]
mutation_id = "A15C G53C"
assay_value = 0.95

